The origin of these recorded values is patent US20080119515A1.

target: ZAP-70 (Homo sapiens); assay: DELFIA assay (ZAP-70 kinase, phosphorylation of biotinylated poly(glu,tyr)); format: biochemical; settings: ZAP-70 DELFIA, class symbols; read-out: Activity (IC50 in vitro)
Sequence (P43403 whole entry): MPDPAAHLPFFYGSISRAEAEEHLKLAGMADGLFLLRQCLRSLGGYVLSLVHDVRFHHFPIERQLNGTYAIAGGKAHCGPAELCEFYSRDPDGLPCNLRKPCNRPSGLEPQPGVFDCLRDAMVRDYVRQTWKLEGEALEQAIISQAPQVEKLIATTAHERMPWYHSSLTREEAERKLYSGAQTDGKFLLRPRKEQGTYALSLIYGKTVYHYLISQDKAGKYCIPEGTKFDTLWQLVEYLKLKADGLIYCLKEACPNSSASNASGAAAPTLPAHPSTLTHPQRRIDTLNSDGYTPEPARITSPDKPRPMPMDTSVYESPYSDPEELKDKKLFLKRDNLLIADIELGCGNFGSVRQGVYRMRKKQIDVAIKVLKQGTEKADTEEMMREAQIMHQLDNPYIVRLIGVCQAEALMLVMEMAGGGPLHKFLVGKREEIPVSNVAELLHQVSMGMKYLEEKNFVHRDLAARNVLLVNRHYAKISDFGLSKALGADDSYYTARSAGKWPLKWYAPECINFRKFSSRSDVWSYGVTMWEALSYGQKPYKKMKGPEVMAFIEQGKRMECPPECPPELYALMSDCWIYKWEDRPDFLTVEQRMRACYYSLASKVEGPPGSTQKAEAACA
Readout Name: IC50

Compound: O=C(NCCc1ccccc1)c1cc(C(=O)N2CCC[C@H]2CN2CCCC2)c2cc(-c3ccc4c(c3)OCO4)ccc2n1
IC50: 1 to 10 µM
--
Compound: N#Cc1ccc(-c2ccc3nc(NCc4ccc(F)cc4F)cc(C(=O)N4CCC[C@H]4CN4CCCC4)c3c2)cc1
IC50: > 10 µM
--
Compound: O=C(c1cc(Cc2ccc(N3CCN(Cc4ccncc4)CC3)cc2)nc2ccc(-c3ccc4c(c3)OCO4)cc12)N1CCCC1CN1CCCC1 (stereo not drawn)
IC50: < 1 µM
--
Compound: O=C(c1cc(NC2CC2)nc2ccccc12)N1CCC[C@H]1CN1CCCC1
IC50: > 10 µM
--
Compound: N#Cc1ccc(-c2ccc3nc(NCCc4ccc(Cl)c(Cl)c4)cc(C(=O)N4CCC[C@H]4CN4CCCC4)c3c2)cc1
IC50: > 10 µM

Exercise: Identify the reported IC50 for the following entry. O=C(c1cc(NCc2ccc(C(F)(F)F)cc2)nc2ccc(-c3nc4ccccc4[nH]3)cc12)N1CCC[C@H]1CN1CCCC1
Solution: > 10 µM

Exercise: For the compound O=C(c1cc(Cl)nc(/C=C/c2ccccc2)c1)N1CCC[C@H]1CN1CCCC1 , give its measured IC50 value.
Solution: > 10 µM

Exercise: Supply measured IC50 of O=C(c1cc(NCc2ccc(C(F)(F)F)cc2)nc2ccc(-c3ccc4c(c3)OCC4)cc12)N1CCC[C@H]1CN1CCCC1 in your reply.
Solution: < 1 µM

Exercise: Please report IC50 for the following compound: CN(Cc1ccccc1)c1cc(C(=O)N2CCC[C@H]2CN2CCCC2)c2cc(Oc3ccccc3)ccc2n1
Solution: 1 to 10 µM

Exercise: Give the reported IC50 for this compound. COc1ccc(C#Cc2cc(C(=O)N3CCC[C@H]3CN3CCCC3)c3cc(-c4ccc5c(c4)OCO5)ccc3n2)cc1
Solution: < 1 µM

Exercise: Give a short answer stating reported IC50 for O=C(c1cc(NCc2ccc(C(F)(F)F)cc2)nc2ccc(CCc3ccc(Cl)cc3)cc12)N1CCC[C@H]1CN1CCCC1 .
Solution: 1 to 10 µM

Exercise: Please look at this compound and report its IC50: COc1cccc(CNc2cc(C(=O)N3CCC[C@H]3CN3CCCC3)c3cc(-c4ccc(C#N)cc4)ccc3n2)c1
Solution: > 10 µM

Exercise: Supply measured IC50 of COc1ccc(C#Cc2ccc3nc(NCc4ccc(C(F)(F)F)cc4)cc(C(=O)N4CCC[C@H]4CN4CCCC4)c3c2)cc1 in your reply.
Solution: 1 to 10 µM
